target: human lung tryptase; assay: β-Tryptase In-Vitro Enzyme Assay; conditions: human lung tryptase 1 nM, substrate H-D-HHT-Ala-Arg-pNa 500 μM, pH 7.4, room temperature
Criterion: IC50 strictly under 800 nM. Met: TRUE. Not met: FALSE.

Q: Say whether its IC50 is strictly beneath 800 nM. Entry: NCc1ccc2c(c1)C1(CCN(C(=O)c3cccc4c3C(=O)c3ccccc3-4)CC1)CO2
Result: FALSE

Q: Dear reviewer, please state whether NCc1ccc2c(c1)C1(CCN(C(=O)/C=C/c3cccc(OCc4ccccc4)c3)CC1)CO2 has IC50 strictly beneath 800 nM.
Result: TRUE

Q: API: query returns whether the molecule falls strictly under 800 nM in IC50. Query: NCc1ccc2c(c1)C1(CCN(C(=O)c3cccc(C(=O)c4ccccc4)c3)CC1)CO2
Result: TRUE

Q: Consider NCc1ccc2c(c1)C1(CCN(C(=O)c3ccc(Cn4cnc5ccccc54)cc3)CC1)CO2 . Does its IC50 lie strictly below 800 nM?
Result: FALSE

Q: Answer whether the molecule CCCOc1sc(C(=O)N2CCC3(CC2)COc2ccc(CN)cc23)c(C)c1Br has IC50 strictly less than 800 nM
Result: TRUE

Q: Lab log: compare recorded IC50 with 800 nM; is it strictly lower for COc1cccc(CCC(=O)N2CCC3(CC2)COc2ccc(CN)cc23)c1 ?
Result: FALSE

Continuing:
Q: I'd appreciate it if you could check whether NCc1ccc2c(c1)C1(CCN(C(=O)c3ccc(Cl)c(Cl)c3)CC1)CS2 has IC50 smaller than 800 nM.
Result: TRUE

Q: Is the reported IC50 for NCc1ccc2c(c1)C1(CCN(C(=O)/C=C/c3ccc(Cl)cc3)CC1)CO2 strictly below 800 nM?
Result: TRUE

Q: hey, is IC50 for N#C/C(=C\c1ccccc1)C(=O)N1CCC2(CC1)COc1ccc(CN)cc12 lower than 800 nM or not?
Result: TRUE

Q: Does NCc1ccc2c(c1)C1(CCN(C(=O)Cc3ccc4ccccc4c3)CC1)CO2 have IC50 strictly under 800 nM?
Result: FALSE

Q: Is it true that IC50 reported for NCc1ccc2c(c1)C1(CCN(C(=O)CCc3cccc(I)c3)CC1)CO2 is less than 800 nM?
Result: FALSE

Q: is_below(IC50, 800 nM) for NCc1ccc2c(c1)C1(CCN(C(=O)c3cc(-c4ccc(Cl)cc4)cs3)CC1)CO2 ?
Result: TRUE

----------
For each of the molecules below, state its pIC50.
biological target: human lung tryptase; test: β-Tryptase In-Vitro Enzyme Assay; type: biochemical; conditions: human lung tryptase 1 nM, substrate H-D-HHT-Ala-Arg-pNa 500 μM, pH 7.4, room temperature
Give bare numbers, as −log10 of the molar value.

Here is how some molecules turned out for pIC50.
Q: I'd like to know its pIC50. The molecule in question is NCc1ccc2c(c1)C1(CCN(C(=O)c3ccc(C#Cc4ccccc4)o3)CC1)CN2
Result: 7.59

Q: Sample NCc1ccc2c(c1)C1(CCN(C(=O)c3cccc(Br)c3)CC1)CO2 — what was its pIC50?
Result: 6.89

Q: Any idea what its pIC50 is? The molecule is NCc1ccc2c(c1)C1(CCN(C(=O)c3ccc4c(c3)S(=O)(=O)c3ccccc3C4=O)CC1)CO2
Result: 6.11

Others:
Q: Consider the molecule shown here: NCc1ccc2c(c1)C1(CCN(C(=O)CC(c3ccccc3)c3ccccc3)CC1)CO2 What is its recorded pIC50?
Result: 6.37
